test: Cytotoxicity counterscreen for inhibitors of SARS-CoV-2 cell entry (AID 1645845); further: nearly all actives have a fitted effect of over 50% in size
protocol_conditions: cell viability (SARS-CoV-2 entry assay cells); series mostly up to 57.1 µM
Results filed as inconclusive are left out. Activity calls are given as the source filed them. The call rests on the fitted dose curve.
observed_property: outcome

molecule	outcome
C[C@@H](O)[C@H](N)C(=O)O	inactive
CCCCC[C@H](O)C=C[C@H]1[C@H](O)CC(=O)[C@H]1CC=CCCCC(=O)O	inactive
CC(C)[N+](C)(CCC(C(N)=O)(c1ccccc1)c1ccccc1)C(C)C	inactive
C[C@H](N)[C@H](O)c1cccc(O)c1	inactive
CCN(CC)C(=O)C1CN2CCc3cc(OC)c(OC)cc3C2CC1OC(C)=O (stereo not drawn)	inactive

Hi! Can you tell me outcome for each of these molecules?
1. NC(=O)CN1CCCC1=O
2. CC[C@H](c1ccc(O)cc1)[C@@H](CC)c1ccc(O)cc1
3. C[N+]12CCC(CC1)C(OC(=O)C(O)(c1ccccc1)c1ccccc1)C2 (stereo not drawn)
4. C[C@@H]1CCN(C(=O)[C@H](CCCN=C(N)N)NS(=O)(=O)c2cccc3c2NC[C@H](C)C3)[C@@H](C(=O)O)C1
5. O=C1c2cccc(O)c2C(=O)c2c(O)cccc21
6. CC(=O)c1ccc2c(c1)N(CCCN1CCC(CCO)CC1)c1ccccc1S2
7. NCCNC(=O)c1ccc(Cl)cn1

1. inactive
2. inactive
3. inactive
4. inactive
5. inactive
6. inactive
7. inactive

Hi! Can you tell me outcome for each of these molecules?
1. CN1CCCN(C(c2ccccc2)c2ccc(Cl)cc2)CC1 (stereo not drawn)
2. CN1CCN(C2=Nc3ccccc3Sc3ccc(Cl)cc32)CC1
3. CCN(CC)CCOc1ccc(Cc2ccccc2)cc1
4. O=C1OC(c2ccc(O)cc2)(c2ccc(O)cc2)c2ccccc21
5. O=C(OCc1ccccc1)c1ccc(O)cc1
6. O=C(Nc1ccccc1)OCC(CN1CCCCC1)OC(=O)Nc1ccccc1 (stereo not drawn)

["inactive", "inactive", "inactive", "inactive", "inactive", "inactive"]

Hi! Can you tell me outcome for each of these molecules?
1. CC(=O)OCC1=C(C(=O)O)N2C(=O)[C@@H](NC(=O)CSc3ccncc3)[C@H]2SC1
2. CCOC(=O)OC(C)OC(=O)[C@@H]1N2C(=O)[C@@H](NC(=O)[C@H](N)c3ccccc3)[C@H]2SC1(C)C (stereo partly drawn)
3. O=c1oc2c(O)c(O)cc3c(=O)oc4c(O)c(O)cc1c4c23
4. COCCc1ccc(OCC(O)CNC(C)C)cc1 (stereo not drawn)
5. O=C(NCC1CN(c2ccc(N3CCOCC3=O)cc2)C(=O)O1)c1ccc(Cl)s1 (stereo not drawn)

inactive
inactive
inactive
inactive
inactive

====

Test system: GB4
test: qHTS profiling for inhibitors of Plasmodium falciparum proliferation (AID 504749); further: nearly all actives have a fitted effect of over 60% in size
protocol_conditions: P. falciparum in erythrocytes, SYBR Green DNA, 72 h; series mostly up to 28.7 µM
Records with an inconclusive call do not appear. Activity calls are given as the source filed them. Calls come from the whole dose curve; as a rule, active = well fitted inhibition curve with a large enough effect; inconclusive = small, poorly fitted or top-dose-only effect; inactive = flat fitted curve, though single readings scatter.
Bench note: report the call from 1.0 = active, 0.0 = inactive

Below are worked cases with known answers.
compound	label_value
CN1C[C@@H](NS(=O)(=O)N(C)C)C[C@@H]2c3cccc4c3c(cn4C)C[C@H]21	0.0
CCCCCCCCCCCC[N+](C)(C)CCOc1ccccc1	1.0
Nc1ccc(N)cc1	1.0
N#Cc1nn(-c2c(Cl)cc(C(F)(F)F)cc2Cl)c(N)c1S(=O)C(F)(F)F (centres undefined)	1.0
O=C(NC(=O)c1c(F)cccc1F)Nc1cc(Cl)c(OC(F)(F)C(F)C(F)(F)F)cc1Cl (centres undefined)	0.0
ClC1=C(Cl)C2(Cl)C(CBr)CC1(Cl)C2(Cl)Cl (centres undefined)	0.0
Cc1ncc2n1-c1ccc(Cl)cc1C(c1ccccc1F)=NC2	0.0
CCS(=O)(=O)C(C)(C)S(=O)(=O)CC	0.0
CN(C)C(=S)SSC(=S)N(C)C	1.0
Cc1ccc(N=CN(C)C=Nc2ccc(C)cc2C)c(C)c1	0.0

Record request — test call for CCN(CC)C(C)C(=O)c1ccccc1 (centres undefined)
0.0

Record request — test call for CC(C)[N+](C)(CCC(C(N)=O)(c1ccccc1)c1ccccc1)C(C)C
0.0

Record request — test call for NCc1cccnc1
0.0

Record request — test call for CCN(Cc1ccc(Cl)nc1)/C(=C/[N+](=O)[O-])NC
0.0

====

test: Cell Viability - LYMP1-002 - Assay at 24 hr (AID 993); further: potency means the concentration at half of the fitted maximal effect
protocol_conditions: LYMP1-002 lymphoblastoid cells viability; series mostly up to 92.2 µM
Calls of active or inactive are those of the source. Calls follow the shape of the dose curve; as a rule, active = well fitted cell-killing curve with a large enough effect; inconclusive = small, poorly fitted or top-dose-only effect; inactive = flat fitted curve, though single readings scatter.
observed_property: Potency

Answered examples (4):
CCCCCCCCCCCC[N+](C)(C)CCOc1ccccc1 7.94 µM (active)
CC[n+]1c(-c2ccccc2)c2cc(N)ccc2c2ccc(N)cc21 31.6 µM (active)
COC(=O)C1=C(C)NC(C)=C(C(=O)OC)C1c1ccccc1[N+](=O)[O-] 50.1 µM (active)
Oc1c(Br)cc(Br)cc1Br inactive

Hi! Can you tell me Potency for each of these compounds?
1. C[C@@H]1C[C@@H]([C@H](O)CC2CC(=O)NC(=O)C2)C(=O)[C@@H](C)C1
2. CN(C)C(=S)SSC(=S)N(C)C

1. inactive
2. 0.316 µM (active)

====

Tested on: CP291
test: qHTS profiling for inhibitors of Plasmodium falciparum proliferation (AID 504749); further: nearly all actives have a fitted effect of over 60% in size
protocol_conditions: P. falciparum in erythrocytes, SYBR Green DNA, 72 h; series mostly up to 28.7 µM
Results filed as inconclusive are left out. Active and inactive are the calls of the source. Calls follow the shape of the dose curve; as a rule, active = well fitted inhibition curve with a large enough effect; inconclusive = small, poorly fitted or top-dose-only effect; inactive = flat fitted curve, though single readings scatter.
Bench note: report the call from label 1 = active, label 0 = inactive

Below are worked cases with known answers.
compound	target_or_system	label_value
CC(C)(C)OC(=O)c1ncn2c1[C@@H]1CCCN1C(=O)c1c(Br)cccc1-2	CP291	label 0
c1ccc2nc(N3CCNCC3)ccc2c1	CP291	label 0

Record request — test call for Oc1c(Br)cc(Br)cc1Br
label 0

Record request — test call for CNC(=O)Oc1cccc2ccccc12
label 0

Record request — test call for CCCCCCCCC(=O)NCc1ccc(O)c(OC)c1
label 0

Record request — test call for O=C(NC(=O)c1c(F)cccc1F)Nc1cc(Cl)c(OC(F)(F)C(F)C(F)(F)F)cc1Cl (configuration not stated)
label 0

Record request — test call for CN1C(=O)CN=C(c2ccccc2)c2cc([N+](=O)[O-])ccc21
label 0

====

test: HTS Assay for Allosteric Antagonists of the Human D2 Dopamine Receptor: Hit Validation in HTRF (AID 624455);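 further: stable D1 dopamine receptor cell line scored for blocking the D1 response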
protocol_conditions: Cells stably expressing D1 dopamine receptor, inhibition mode; series mostly up to 46.1 µM
Results filed as inconclusive are left out. Active and inactive are the calls of the source. Calls come from the whole dose curve; as a rule, active = well fitted inhibition curve with a large enough effect; inconclusive = small, poorly fitted or top-dose-only effect; inactive = no such curve, though single readings can be large or run the other way.
Bench note: report the call from Yes (active), No (inactive)

COC(=O)C1=CCCN(C)C1 No

Record request — test call for CN1C[C@H](C(=O)N[C@]2(C)O[C@@]3(O)[C@@H]4CCCN4C(=O)[C@H](Cc4ccccc4)N3C2=O)C[C@@H]2c3cccc4[nH]cc(c34)C[C@H]21
Yes

Record request — test call for NC(=O)CN1CCCC1=O
No

Record request — test call for O=C(O)c1nn(Cc2ccc(Cl)cc2Cl)c2ccccc12
No

====

protocol_conditions: Ebola virus entry assay, reporter ratio channel; Channel type: primary
Activity calls are given as the source filed them.
observed_property: AC50

Answered examples (4):
molecule	AC50
CC1(C)S[C@@H]2[C@H](N=CN3CCCCCC3)C(=O)N2[C@H]1C(=O)O	inactive
CC1(C)O[C@@H]2C[C@H]3[C@@H]4C[C@H](F)C5=CC(=O)CC[C@]5(C)[C@H]4[C@@H](O)C[C@]3(C)[C@]2(C(=O)CO)O1	inactive
c1cc(CN2CCCCC2)cc(OCCCNc2nc3ccccc3s2)c1	12.6 µM (active)
C[N+]12CCC(CC1)C(OC(=O)C(O)(c1ccccc1)c1ccccc1)C2 (stereo unspecified)	inactive

Hi! Can you tell me AC50 for each of these molecules?
1. O=C(O)c1nn(Cc2ccc(Cl)cc2Cl)c2ccccc12
2. NS(=O)(=O)c1cc2c(cc1Cl)NC(C1CC3C=CC1C3)NS2(=O)=O (stereo unspecified)
3. Nc1c2c(nc3c1CCC3)CCCC2
4. COc1cc(O)c(C(=O)c2ccccc2)cc1S(=O)(=O)O
5. O=c1[nH]cnc2c1ncn2[C@@H]1O[C@H](CO)[C@@H](O)[C@H]1O
6. CCOCCOC(=O)/C=C/c1ccc(OC)cc1
7. C[C@@H]1CCN(C(=O)[C@H](CCCN=C(N)N)NS(=O)(=O)c2cccc3c2NC[C@H](C)C3)[C@@H](C(=O)O)C1

1: inactive; 2: inactive; 3: 31.6 µM (active); 4: inactive; 5: inactive; 6: inactive; 7: inactive

====

test: Drug repurposing screens with cells derived from glioblastoma tumor samples (AID 1345199); further: on the % scale 0 is the no-effect control and ±100 the full control effect; nearly all actives have a fitted effect of over 40% in size
protocol_conditions: GBM patient neurospheres viability, ATP luminescence, 48 h; at 108 µM (top of the series); tumour line B
Records with an inconclusive call do not appear.
activity, negative = cell killing strictly less than -10% = 1 (yes). Otherwise 0 (no).

Below are worked cases with known answers.
compound	label_value
COc1ccc(OC)c(CC(C)N)c1 (centres undefined)	0 (no)
COc1cc(C[C@@H](C)N)c(OC)cc1C	1 (yes)
COc1cc(CC(C)N)cc2c1OCO2 (centres undefined)	1 (yes)
COc1ccc2[nH]cc(CCN(C(C)C)C(C)C)c2c1	0 (no)

Field: below-cutoff. Rule: recorded activity, negative = cell killing strictly less than -10%. Subject: CC[C@H](O)C(C[C@H](C)N(C)C)(c1ccccc1)c1ccccc1
1 (yes)

Field: below-cutoff. Rule: recorded activity, negative = cell killing strictly less than -10%. Subject: COc1cc(C[C@@H](C)N)c(OC)cc1Br
1 (yes)

Field: below-cutoff. Rule: recorded activity, negative = cell killing strictly less than -10%. Subject: CCC(=O)OC1(c2ccccc2)CCN(C)CC1
0 (no)

Field: below-cutoff. Rule: recorded activity, negative = cell killing strictly less than -10%. Subject: CC(Cc1ccc2c(c1)OCO2)NO (centres undefined)
0 (no)

Field: below-cutoff. Rule: recorded activity, negative = cell killing strictly less than -10%. Subject: C[C@H](CN1CCOCC1)C(C(=O)N1CCCC1)(c1ccccc1)c1ccccc1
1 (yes)
